Subject of test: 72 kDa type IV collagenase (Homo sapiens, UniProt P08253)
Sequence (P08253 whole entry): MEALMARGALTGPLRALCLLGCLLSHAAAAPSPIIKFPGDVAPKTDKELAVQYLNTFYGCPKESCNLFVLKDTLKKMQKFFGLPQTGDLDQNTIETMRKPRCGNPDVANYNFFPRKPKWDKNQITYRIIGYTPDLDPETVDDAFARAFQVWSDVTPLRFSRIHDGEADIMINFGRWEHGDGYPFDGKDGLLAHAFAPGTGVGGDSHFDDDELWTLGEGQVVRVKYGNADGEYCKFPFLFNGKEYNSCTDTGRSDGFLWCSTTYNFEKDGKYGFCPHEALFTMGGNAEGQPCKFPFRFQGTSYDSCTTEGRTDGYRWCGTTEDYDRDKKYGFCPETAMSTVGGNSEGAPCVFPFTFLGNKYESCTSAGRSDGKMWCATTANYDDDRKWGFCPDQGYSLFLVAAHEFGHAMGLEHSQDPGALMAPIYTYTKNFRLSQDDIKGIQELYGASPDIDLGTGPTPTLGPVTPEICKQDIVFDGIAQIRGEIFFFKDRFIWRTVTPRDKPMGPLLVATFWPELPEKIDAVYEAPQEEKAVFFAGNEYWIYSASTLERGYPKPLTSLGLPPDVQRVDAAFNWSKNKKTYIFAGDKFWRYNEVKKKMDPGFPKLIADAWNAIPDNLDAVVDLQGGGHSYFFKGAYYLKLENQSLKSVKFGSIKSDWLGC
Test name: Inhibition of human recombinant pro-MMP2 by spectrofluorimeter
Endpoint name: IC50 (nM)

The following molecules have reported results that may help.
### Prompt For 72 kDa type IV collagenase (Homo sapiens, UniProt P08253), give IC50 of the listed molecule: CCCCCC/C=C(\CC(=O)NNS(=O)(=O)c1ccc(-c2ccc(Br)cc2)cc1)C(=O)N[C@@H](Cc1c[nH]c2ccccc12)C(=O)NC
### Response 1810

### Prompt Quote IC50 with test system 72 kDa type IV collagenase (Homo sapiens, UniProt P08253) for CNC(=O)[C@H](Cc1c[nH]c2ccccc12)NC(=O)/C(=C/CCc1ccccc1)CC(=O)NNS(=O)(=O)c1ccc(-c2ccc(Br)cc2)cc1
### Response 310

1: CCCCCC/C=C(\CC(=O)NNS(=O)(=O)c1ccc(-c2ccc(Br)cc2)cc1)C(=O)N[C@@H](Cc1c(-c2ccccc2)[nH]c2ccccc12)C(=O)NC
2: CNC(=O)[C@H](Cc1c[nH]c2ccccc12)NC(=O)[C@@H](CC(=O)NNS(C)(=O)=O)CC(C)C
### Prompt Field: lower IC50 | Options: 1 / 2 Selection: enter the item's label.
### Response 2
(2: 740 nM, 1: 1270 nM)
